Experiment: qHTS for Inhibitors of human tyrosyl-DNA phosphodiesterase 1 (TDP1): qHTS in cells in absence of CPT; note: nearly all actives have a fitted effect of over 55% in size
Conditions: DT40 Tdp1-/- hTDP1 cells, no CPT, ATP luminescence, 48 h
The whole screen tested about 420,000 compounds, of which about 64,000 (15%) were called active. About 27% were inconclusive and are not listed. Calls come from the whole dose curve; as a rule, active = well fitted inhibition curve with a large enough effect; inconclusive = small, poorly fitted or top-dose-only effect; inactive = flat fitted curve, though single readings scatter. Not all results are given here.
In this exercise, the only acceptable responses are 1 for active, -1 for inactive

| chemical.smiles | label.class |
| --- | --- |
| COc1ccc(-n2cnnc2SCC(=O)Nc2cccc(S(N)(=O)=O)c2)cc1 | -1 |
| CCCC(=O)N=c1sc2cccc(F)c2n1C | -1 |
| Cc1cc(NC(=O)CSc2nc(=O)cc(N)n2-c2ccc(F)cc2)no1 | -1 |
| Cc1ccc(C(=O)c2c(NC(=O)c3ccccc3)sc(C)c2C)cc1 | 1 |
| COc1ccccc1N(CC(=O)Nc1ccc(C(F)(F)F)cc1)S(C)(=O)=O | -1 |

Asked: Assay result, entry O=C(Nc1ccccc1Br)c1cc(CN2CCCC2)on1 — outcome?
Given back: -1

Asked: Assay result, entry CCN1C(=O)/C(=C\N2CCOCC2)SC1=S — outcome?
Given back: -1

Asked: Assay result, entry CCOC(=O)c1sc2nc(CSCC(=O)OCc3ccc(C(=O)OC)o3)[nH]c(=O)c2c1C — outcome?
Given back: -1

Asked: Assay result, entry O=C(COC(=O)c1ncc(Cl)c(Cl)c1Cl)NCc1cccs1 — outcome?
Given back: -1

Asked: Assay result, entry CCOC(=O)c1c(NC(=O)c2cccs2)sc(C)c1C — outcome?
Given back: -1

Asked: Assay result, entry C=CCn1cnc2scc(-c3ccccc3)c2c1=O — outcome?
Given back: -1

Asked: Assay result, entry N#CCCN(CCC#N)c1nnc(-c2ccccc2)s1 — outcome?
Given back: -1
